System: NDR1
Construct: gene STK38
Settings: concentration: 1 μM,replicates: in singlicate; n = 1;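 also: KINOMEscan kinase panel screen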
Attribute: %Inh
READOUT_LABEL: %Inh (%)

INSERT INTO measurements (compound, subject_of_test, value) VALUES
  ('Cc1nnc(-c2ccc3occ(-c4ccc(S(C)=O)cc4)c3n2)o1 (stereo not shown)', 'NDR1', 0),
  ('CCn1c(-c2nonc2N)nc2cncc(CNC3CCNCC3)c21.Cl', 'NDR1', 1),
  ('Cc1cccc(-c2nc(Nc3ccncc3)c3sccc3n2)n1', 'NDR1', 35),
  ('CS(=O)(=O)Nc1ccc(-c2ccnc3[nH]ccc23)cc1', 'NDR1', 20),
  ('CS(=O)(=O)c1cccc(CNc2nc(Nc3ccc4c(c3)[C@@H]3C[C@@H]4CNC3=O)ncc2C(F)(F)F)c1', 'NDR1', 85),
  ('CN(c1ccccc1CNc1nc(Nc2ccc3c(c2)CC(=O)N3)ncc1C(F)(F)F)S(C)(=O)=O', 'NDR1', 33),
  ('CN1CCN(CCCNc2nccc(-c3c(-c4ccc(F)cc4)nn4cc(C(N)=O)ccc34)n2)CC1', 'NDR1', 33),
  ('COc1cccc(CNC(=O)NC2CCN(c3ccnc(Nc4cc(OC)c(OC)c(OC)c4)n3)C2)c1 (stereo not shown)', 'NDR1', 15),
  ('COC(=O)Nc1nc2cc(Oc3ccc(NC(=O)Nc4cc(C(F)(F)F)ccc4Cl)cc3)ccc2[nH]1.Cl', 'NDR1', 8),
  ('COc1cccc(OC)c1C(=O)Nc1cccc(-c2nn3ccccc3c2-c2ccnc(Nc3cccc(F)c3)n2)c1', 'NDR1', 17),
  ('CSc1nccc(-c2c(-c3ccc(F)cc3)ncn2CCCN2CCOCC2)n1.Cl', 'NDR1', 42),
  ('CCOC(=O)N1CCC(n2cnc(-c3ccc(F)cc3)c2-c2ccnc(N)n2)CC1', 'NDR1', 0),
  ('Cn1ccc2ncnc(Oc3ccc(NC(=O)Nc4ccnc(C(F)(F)F)c4)c(Cl)c3)c21', 'NDR1', 0),
  ('Cc1ccc(CC(=O)N2CCc3cc(-c4cn(C)c5ncnc(N)c45)ccc32)cc1', 'NDR1', 18),
  ('Cc1cccc2c(-c3ccncc3)c(-c3ccc(F)cc3)nn12.Cl', 'NDR1', 25),
  ('Cl.Nc1n[nH]c2cc(-c3ccccn3)ccc12', 'NDR1', 0),
  ('CCNCC(Cc1ccccc1)NC(=O)c1cc(Br)c(-c2ccnc3[nH]ccc23)s1.Cl.Cl (stereo not shown)', 'NDR1', 99.8),
  ('Cl.Cl.NC[C@H](CC1CCCCC1)NC(=O)c1ccc(-c2ccnc3[nH]ccc23)s1', 'NDR1', 95.8),
  ('COC(=O)c1cccc(NC(=O)NC2CCN(c3ccnc(Nc4cc(OC)c(OC)c(OC)c4)n3)C2)c1 (stereo not shown)', 'NDR1', 18),
  ('O=C(Nc1cccc(Oc2ccc3nccn3n2)c1)Nc1cccc(C(F)(F)F)c1', 'NDR1', 0),
  ('COc1ccc(Nc2nccc(N3CCC(NC(=O)c4cccc(C#N)c4)C3)n2)cc1 (stereo not shown)', 'NDR1', 0),
  ('CC(=O)Nc1nc2cnc(Nc3cc(NC(=O)c4cccc(CC(C)(C)C#N)c4)ccc3C)nc2s1', 'NDR1', 0),
  ('Cc1ccn2nc(-c3ccc(F)cc3)c(-c3ccncc3)c2c1.Cl', 'NDR1', 13),
  ('C[C@@H](Oc1cc(-n2cnc3cc(-c4ccncc4)ccc32)sc1C(N)=O)c1ccccc1Cl', 'NDR1', 0),
  ('C[C@@H](Oc1cc(-n2cnc3ccc(-c4ccncc4)cc32)sc1C(N)=O)c1ccccc1Cl', 'NDR1', 10);

---

Test system: DRAK1
Construct: gene STK17A
Conditions: concentration: 1 μM,replicates: in singlicate; n = 1
READOUT_LABEL: %Inh

INSERT INTO results (molecule, value) VALUES
  ('CC(C(=O)NC1CCN(c2ccnc(Nc3ccc(F)cc3)n2)C1)c1ccc(Cl)cc1 (stereo not drawn)', '6%'),
  ('CCNCC(Cc1ccccc1)NC(=O)c1cc(Br)c(-c2ccnc3[nH]ccc23)s1.Cl.Cl (stereo not drawn)', '0%'),
  ('NC(=O)Nc1sc(-c2ccc(F)cc2)cc1C(N)=O', '43%'),
  ('CCN1CCN(CCCC(=O)Nc2n[nH]c3nc(-c4ccc(O)cc4)c(Br)cc23)CC1', '44%'),
  ('Cn1ccc2ncnc(Oc3ccc(NC(=O)Nc4cnn(C(C)(C)C)c4)c(Cl)c3)c21', '0%'),
  ('Cc1ccc(Nc2ccnc(Nc3ccc4c(c3)CS(=O)(=O)C4)n2)cc1O.Cl', '45%'),
  ('CC(=O)c1c(-c2ccncc2)[nH]c(-c2ccncc2)c1C', '44%'),
  ('Cc1cccc(-c2nc(Nc3ccncc3)c3sccc3n2)n1', '2%'),
  ('C[C@@H](Oc1cc(-n2cnc3cc(-c4ccncc4)ccc32)sc1C(N)=O)c1ccccc1Cl', '0%');

---

Test system: ASK2
Construct: gene MAP3K6
Conditions: concentration: 1 μM,replicates: in singlicate; n = 1
READOUT_LABEL: %Inh (%)

INSERT INTO results (smiles_structure, unit_string, value) VALUES
  ('O=c1[nH]cc(-c2ccc(O)cc2)c2sc(-c3ccncc3)cc12', '%', 0),
  ('Cn1ccc2ncnc(Oc3ccc(NC(=O)Nc4ccnc(C(F)(F)F)c4)c(Cl)c3)c21', '%', 0),
  ('CNC(=O)c1ccccc1Nc1nc(Nc2cccc(CS(C)(=O)=O)c2)ncc1C.O=CO', '%', 13),
  ('C[C@@H](Oc1cc(-n2cnc3cc(-c4cnn(C)c4)ccc32)sc1C(N)=O)c1ccccc1Cl', '%', 15);

---

Overview of reported %Inh across a group of molecules:
System: TNK2
Details: concentration: 1 μM,replicates: in singlicate; n = 1
READOUT_LABEL: %Inh (%)

INSERT INTO results (smiles_structure, unit_string, value) VALUES
  ('O=C1NCCc2[nH]c(-c3ccncc3)cc21', '%', 0),
  ('Cc1cccc(-c2nc(Nc3ccncc3)c3sccc3n2)n1', '%', 0),
  ('C[C@@H]1CCN(C(=O)N2CCCC2)C[C@@H]1N(C)c1ncnc2[nH]ccc12', '%', 0),
  ('COc1cc2c(Nc3ccc(NC(=O)c4ccccc4)cc3)ncnc2cc1OCCCN1CCOCC1', '%', 66),
  ('NC(=O)Nc1sc(-c2ccc(F)cc2)cc1C(N)=O', '%', 26),
  ('CSc1nccc(-c2c(-c3ccc(F)cc3)ncn2CCCN2CCOCC2)n1.Cl', '%', 0),
  ('CC(=O)c1c(-c2ccncc2)[nH]c(-c2ccncc2)c1C', '%', 19),
  ('CCN1CCN(CCCC(=O)Nc2n[nH]c3nc(-c4ccc(O)cc4)c(Br)cc23)CC1', '%', 0),
  ('OCCn1cc(-c2cnc3nnn(Cc4ccc5ncccc5c4)c3n2)cn1', '%', 0),
  ('Nc1nccc(-c2ccc3c(N)n[nH]c3c2)n1', '%', 5);

---

Tested on: HIPK1
Conditions: concentration: 1 μM,replicates: in singlicate; n = 1
Binary call on %Inh: Yes from 30% upward, No beneath that.

INSERT INTO measurements (smiles_structure, group) VALUES
  ('CS(=O)(=O)c1cccc(CNc2nc(Nc3ccc4c(c3)[C@@H]3C[C@@H]4CNC3=O)ncc2C(F)(F)F)c1', 'Yes'),
  ('COC(=O)c1cccc(NC(=O)NC2CCN(c3ccnc(NCc4ccc(F)cc4)n3)CC2)c1', 'No'),
  ('Cl.Nc1n[nH]c2cc(-c3ccccn3)ccc12', 'No'),
  ('CN(c1ccc2c(c1)nc(NCc1ccc(F)cc1)n2C)c1ccnc(Nc2ccc(CS(C)(=O)=O)cc2)n1.Cl', 'Yes'),
  ('CC(=O)Nc1nc2cnc(Nc3cc(NC(=O)c4cccc(CC(C)(C)C#N)c4)ccc3C)nc2s1', 'No'),
  ('C[C@@H](Oc1cc(-n2cnc3cc(-c4cnn(C)c4)ccc32)sc1C(N)=O)c1ccccc1Cl', 'No'),
  ('COc1cc2c(Nc3ccc(NC(=O)c4ccccc4)cc3)ncnc2cc1OCCCN1CCOCC1', 'No'),
  ('Cc1ccc(C(=O)Nc2ccc(Oc3ccc4nc(NC(=O)C5CC5)cn4c3)c(F)c2)c(=O)n1-c1ccccc1', 'No');

---

Tested on: HUNK
Conditions: concentration: 1 μM,replicates: in singlicate; n = 1
READOUT_LABEL: %Inh (%)

INSERT INTO results (molecule, readout_label, unit_string, value) VALUES
  ('C[C@@H]1CCN(C(=O)N2CCCC2)C[C@@H]1N(C)c1ncnc2[nH]ccc12', '%Inh', '%', 0),
  ('CC(C)c1nc(-c2cccc(NS(=O)(=O)c3ccccc3)c2)c(-c2ccnc(Nc3ccc4c(c3)CN(C)CC4)n2)s1 [GSK1649598]', '%Inh', '%', 3),
  ('Cc1ccc2c(-c3ccnc(Nc4ccc(C(F)(F)F)cc4)n3)cnn2n1 [GW819776]', '%Inh', '%', 0),
  ('Cn1ccc2ncnc(Oc3ccc(NC(=O)Nc4cccc(C(F)(F)F)c4)c(F)c3)c21', '%Inh', '%', 0),
  ('OCCn1cc(-c2cnc3nnn(Cc4ccc5ncccc5c4)c3n2)cn1', '%Inh', '%', 0),
  ('CC(C)S(=O)(=O)N1CCN(Cc2ccc3c(c2)nc(NC(=O)c2ccsc2)n3C[C@H](O)c2ccccc2)CC1 [GW635815]', '%Inh', '%', 0),
  ('Cc1ccc(C(=O)Nc2ccc(Oc3ccc4nc(NC(=O)C5CC5)cn4c3)c(F)c2)c(=O)n1-c1ccccc1', '%Inh', '%', 22),
  ('CSc1nccc(-c2c(-c3ccc(F)cc3)ncn2CCCN2CCOCC2)n1.Cl [SB-217146]', '%Inh', '%', 13);
